RLU reference
Target: T1, human CD71 extracellular domain (human, UniProt P02786 89-760)
T1 construct: also called hCD71; CD71-ECD
T1 sequence (P02786 89-760): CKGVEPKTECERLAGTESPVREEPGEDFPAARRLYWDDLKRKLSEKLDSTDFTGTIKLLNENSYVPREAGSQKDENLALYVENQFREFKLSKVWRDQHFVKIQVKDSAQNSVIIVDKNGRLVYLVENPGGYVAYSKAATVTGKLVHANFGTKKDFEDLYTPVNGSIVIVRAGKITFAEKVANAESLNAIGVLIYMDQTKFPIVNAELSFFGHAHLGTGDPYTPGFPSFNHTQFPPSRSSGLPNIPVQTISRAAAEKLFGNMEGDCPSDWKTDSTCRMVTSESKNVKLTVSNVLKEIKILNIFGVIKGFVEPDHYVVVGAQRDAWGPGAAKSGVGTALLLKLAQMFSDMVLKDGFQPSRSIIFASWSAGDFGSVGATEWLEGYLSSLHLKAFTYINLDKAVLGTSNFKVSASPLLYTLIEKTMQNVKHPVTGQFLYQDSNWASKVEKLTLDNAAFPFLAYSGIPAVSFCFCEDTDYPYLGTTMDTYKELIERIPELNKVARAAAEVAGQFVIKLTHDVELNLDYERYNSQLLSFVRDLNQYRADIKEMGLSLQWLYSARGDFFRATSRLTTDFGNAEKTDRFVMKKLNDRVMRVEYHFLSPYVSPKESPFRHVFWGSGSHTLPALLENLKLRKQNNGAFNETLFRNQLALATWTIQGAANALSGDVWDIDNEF
Assay: primary ELISA; further: test concentration or dose not given here
Entry rule: numbers only, all in RLU.

binder="CD71-binding FN3 domain SEQ ID NO 396 (designed binder) MLPAPKNLVVSRVTEDSARLSWTAPDAAFDSFFIGYLEPQPPGEAIYLTVPGSERSYDLTGLKPGTEYNVTIQGVKGGFPSMPLSAIFTT" value_type=RLU reported_value=2.23e+06
binder="CD71-binding FN3 domain SEQ ID NO 416 (designed binder) MLPAPKNLVVSRVTEDSARLSWTAPDAAFDSFFIGYLEPQPPGEAIALYVPGSERSYDLTGLKPGTEYNVTIQGVKGGFPSLPLVATFTT" value_type=RLU reported_value=6.6e+06
binder="CD71-binding FN3 domain SEQ ID NO 382 (designed binder) MLPAPKNLVVSRVTEDSARLSWTAPDAAFDSFFIGYLEPQPPGEAIELYVPGSERSYDLTGLKPGTEYNVTIQGVKGGFPSDPLEADFTT" value_type=RLU reported_value=2.01e+06

Shifting focus to the binder that follows.
# binder CD71-binding FN3 domain SEQ ID NO 435 (designed binder) MLPAPKNLVVSRVTEDSARLSWTAPDAAFDSFFIGYLEPQPPGEAIALWVPGSERSYDLTGLKPGTEYNVTIQGVKGGFPSHPLAAVFTT ; its RLU = 3.62e+06
